Cited source for all entries: PubChem BioAssay

# ASSAY EXPLANATION: viability loss with induced miR-34 in A549 – imaging, A549 dox-inducible miR-34, nuclei and caspase counts, primary screen (AID 1347080)
# CONDITION DESCRIPTION: A549 miR-34 inducible, Hoechst nuclei count, 48 h; measured here: total cells without miR-34 induction
Recorded cell count for the following compounds
Answer using only a numeral; do not append any unit.

CCc1c(C(=O)NCCc2ccc(N3CCCCC3)cc2)[nH]c2ccc(Cl)cc12
7980
CC(=O)[C@@]1(O)CCC2C3CC(C)C4=CC(=O)CC[C@]4(C)C3CC[C@@]21C (stereo not given in full)
9450
Cc1cc(C)c(Nc2ccnc(Nc3ccc(C#N)cc3)n2)c(C)c1
2590
CC[C@]1(O)C[C@H]2CN(CCc3c([nH]c4ccccc34)[C@@](C(=O)OC)(c3cc4c(cc3OC)N(C)[C@@H]3C45CCN4CC=C[C@@](CC)(C(OC(C)=O)[C@]3(O)C(=O)OC)[C@H]45)C2)C1 (stereo not given in full)
1260

Next compound, cell count to be filled in.
QUERY: What measured cell count goes with CC(C)C(N)C(=O)OCC(CO)OCN1C=NC2C(=O)NC(N)=NC21 (stereo not given) ?
RESULT: 9190

====

# ASSAY EXPLANATION: growth inhibition, single agent and combos, cell-based, chromothripsis tumors, cisplatin or BGB combos (AID 1671450);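 further: cells exposed to compound for four days; 0% = vehicle DMSO and 100% = cell killing by high DMSO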
# CONDITION DESCRIPTION: HDN33 neuroblastoma cells, measured here: with cisplatin IC20 combination, at 0.5 µM, stronger effect = higher value
Binary classification by inhibition, with 10% as an inclusive lower bound for MET; all other cases are NOT MET.

O=c1[nH]c(=O)n(C2CC(O)C(CO)O2)cc1I (stereo not given)
NOT MET

QUERY: Textbook exercise: given the entry O=C1C(=Cc2cccnc2)C(=O)c2ccccc21 , state whether its inhibition is greater than or equal to 10%.
RESULT: MET

QUERY: Do the same for CN(C)C(=S)NN=C(c1ccccn1)c1ccccn1 please
RESULT: MET

QUERY: Do the same for Cc1cc(C)c(Nc2ccnc(Nc3ccc(C#N)cc3)n2)c(C)c1 please
RESULT: NOT MET

QUERY: Do the same for O=C(CCSc1nc2ccccc2c(=O)[nH]1)NC1CCC(c2nnc(-c3ccccc3)o2)CC1 (stereo not given) please
RESULT: MET

QUERY: Do the same for Nc1ccccc1NC(=O)c1cnccn1 please
RESULT: NOT MET

QUERY: Do the same for CCC1(O)C(=O)OCc2c1cc1n(c2=O)Cc2cc3cc(O)ccc3nc2-1 (stereo not given) please
RESULT: MET

====

# ASSAY EXPLANATION: drug combination growth inhibition, ovarian cancer – cell-based, oncology-focused library, rucaparib conditional, profiling panel (AID 1508598)
# CONDITION DESCRIPTION: patient-derived ovarian cancer cells, CellTiter-Glo viability, 144 h; at 0.00488 µM; OCI-P5x cells; with rucaparib 20 µM; stronger effect = lower value; 100% = cells with rucaparib alone
Recorded viability for the following molecules
I only need the number, in %, no unit after it.

Known viability results, listed for orientation:
COc1cc2c(cc1O)CC[C@@H]1[C@H]2CC[C@]2(C)[C@H](O)CC[C@@H]12
109
Cc1[nH]c(C=C2C(=O)Nc3ccc(S(=O)(=O)N(C)c4cccc(Cl)c4)cc32)c(C)c1C(=O)N1CCN(C)CC1
89.6

QUERY: What measured viability goes with C[C@@]12CC[C@H]3c4ccc(O)cc4C[C@@H](CCCCCCCCCS(=O)CCCC(F)(F)C(F)(F)F)[C@H]3[C@@H]1CC[C@@H]2O (stereo partly specified) ?
RESULT: 116

QUERY: Do the same for C[C@]12CCC(=O)C=C1CC[C@@H]1[C@H]2[C@H](O)C[C@@]2(C)[C@H]1CC[C@@]2(O)C(=O)CO please
RESULT: 102

QUERY: Do the same for CO[C@H]1C[C@@H]2CC[C@@H](C)[C@@](O)(O2)C(=O)C(=O)N2CCCC[C@H]2C(=O)O[C@H]([C@H](C)C[C@@H]2CC[C@@H](O)[C@H](OC)C2)CC(=O)[C@H](C)/C=C(\C)[C@@H](O)[C@H](OC)C(=O)[C@H](C)C[C@H](C)/C=C/C=C/C=C/1C please
RESULT: 83.5

QUERY: Do the same for CC#C[C@@]1(O)CC[C@H]2[C@@H]3CCC4=CC(=O)CCC4=C3[C@H](c3ccc(N(C)C)cc3)C[C@@]21C please
RESULT: 93.3
